- Test system: B16-F10
- Measurement description: Induction of apoptosis in mouse B16F10 cells assessed as necrotic cells at IC50 after 72 hrs by annexin V-FITC/propidium iodide staining-based FACS analysis (reference value: 4.0 +/- 0.6%)
- Format: functional
Quantity kind: Activity (%)

>>> measured_number("CCC(=O)O[C@H]1CC[C@]2(C)[C@H]3CC=C4[C@@H]5CC(C)(C)CC[C@]5(C(=O)O)CC[C@@]4(C)[C@]3(C)CC[C@H]2C1(C)C")
1.3
>>> measured_number("CC(=O)O[C@@H]1C[C@]2(C)[C@H]3CC=C4[C@@H]5CC(C)(C)CC[C@]5(C(=O)OCc5ccccc5)CC[C@@]4(C)[C@]3(C)CC[C@H]2C(C)(C)[C@H]1O")
1.2
>>> measured_number("CCCCCC(=O)O[C@@H]1C[C@]2(C)[C@H]3CC=C4[C@@H]5CC(C)(C)CC[C@]5(C(=O)O)CC[C@@]4(C)[C@]3(C)CC[C@H]2C(C)(C)[C@H]1O")
3.9
>>> measured_number("CC(C)(CC(=O)O)CC(=O)O[C@H]1CC[C@]2(C)[C@H]3CC=C4[C@@H]5CC(C)(C)CC[C@]5(C(=O)OCc5ccccc5)CC[C@@]4(C)[C@]3(C)CC[C@H]2C1(C)C")
5.3
>>> measured_number("CC1(C)CC[C@]2(C(=O)OCc3ccccc3)CC[C@]3(C)C(=CC[C@@H]4[C@@]5(C)CC[C@H](OC(=O)CCC(=O)O)C(C)(C)[C@@H]5CC[C@]43C)[C@@H]2C1")
11.1
>>> measured_number("CC1(C)CC[C@]2(C(=O)OCc3ccccc3)CC[C@]3(C)C(=CC[C@@H]4[C@@]5(C)CC[C@H](O)C(C)(C)[C@@H]5CC[C@]43C)[C@@H]2C1")
4.3
>>> measured_number("CC1(C)CC[C@]2(C(=O)OCc3ccccc3)CC[C@]3(C)C(=CC[C@@H]4[C@@]5(C)C[C@@H](OC(=O)CCCC(=O)O)[C@H](O)C(C)(C)[C@@H]5CC[C@]43C)[C@@H]2C1")
1.6
>>> measured_number("CC(C)(CC(=O)O)CC(=O)O[C@@H]1C[C@]2(C)[C@H]3CC=C4[C@@H]5CC(C)(C)CC[C@]5(C(=O)OCc5ccccc5)CC[C@@]4(C)[C@]3(C)CC[C@H]2C(C)(C)[C@H]1O")
1.8

---

Each entry below lists one item and its recorded Activity value.
- System: B16-F10
- Measurement description: Induction of apoptosis in mouse B16F10 cells assessed as necrotic cells at IC50 after 72 hrs by annexin V-FITC/propidium iodide staining-based FACS analysis (reference value: 4.0 +/- 0.6%)
- Type: functional
Quantity kind: Activity

>>> result("CC1(C)CC[C@]2(C(=O)OCc3ccccc3)CC[C@]3(C)C(=CC[C@@H]4[C@@]5(C)CC[C@H](OC(=O)c6ccccc6C(=O)O)C(C)(C)[C@@H]5CC[C@]43C)[C@@H]2C1")
"1.5%"
>>> result("CC1(C)CC[C@]2(C(=O)O)CC[C@]3(C)C(=CC[C@@H]4[C@@]5(C)CC[C@H](OC(=O)c6ccccc6)C(C)(C)[C@@H]5CC[C@]43C)[C@@H]2C1")
"3.8%"
>>> result("CC(=O)O[C@@H]1C[C@]2(C)[C@H]3CC=C4[C@@H]5CC(C)(C)CC[C@]5(C(=O)O)CC[C@@]4(C)[C@]3(C)CC[C@H]2C(C)(C)[C@H]1OC(C)=O")
"7.1%"
>>> result("CC1(C)CC[C@]2(C(=O)OCc3ccccc3)CC[C@]3(C)C(=CC[C@@H]4[C@@]5(C)C[C@@H](OC(=O)c6ccccc6C(=O)O)[C@H](O)C(C)(C)[C@@H]5CC[C@]43C)[C@@H]2C1")
"2.5%"
>>> result("CC(=O)O[C@H]1CC[C@]2(C)[C@H]3CC=C4[C@@H]5CC(C)(C)CC[C@]5(C(=O)O)CC[C@@]4(C)[C@]3(C)CC[C@H]2C1(C)C")
"5.8%"
>>> result("CC1(C)CC[C@]2(C(=O)OCc3ccccc3)CC[C@]3(C)C(=CC[C@@H]4[C@@]5(C)CC[C@H](OC(=O)CCCC(=O)O)C(C)(C)[C@@H]5CC[C@]43C)[C@@H]2C1")
"15.9%"
>>> result("CC1(C)CC[C@]2(C(=O)OCc3ccccc3)CC[C@]3(C)C(=CC[C@@H]4[C@@]5(C)C[C@@H](O)[C@H](O)C(C)(C)[C@@H]5CC[C@]43C)[C@@H]2C1 [BENZYL MASLINATE]")
"0.3%"
>>> result("CC1(C)CC[C@]2(C(=O)O)CC[C@]3(C)C(=CC[C@@H]4[C@@]5(C)CC[C@H](O)C(C)(C)[C@@H]5CC[C@]43C)[C@@H]2C1")
"10.1%"
>>> result("CCCC(=O)O[C@@H]1C[C@]2(C)[C@H]3CC=C4[C@@H]5CC(C)(C)CC[C@]5(C(=O)O)CC[C@@]4(C)[C@]3(C)CC[C@H]2C(C)(C)[C@H]1O")
"1.2%"
>>> result("CC1(C)CC[C@]2(C(=O)O)CC[C@]3(C)C(=CC[C@@H]4[C@@]5(C)C[C@@H](O)[C@H](O)C(C)(C)[C@@H]5CC[C@]43C)[C@@H]2C1")
"11.7%"

Taken from ChEMBL document CHEMBL3124882.
